# run-description: Average animal weight in MCF-7 mouse xenograft model
# Format: in vivo
# experimental-conditions: nude mice with MCF-7 xenograft, i.p., day 10
test-readout: Average Weight of Animals in Grams after Days 10 (Grams)
I only need the number, in Grams, no unit after it.

Cc1cc(=O)n(C(=O)Cn2cnc3scc(-c4cccs4)c3c2=O)[nH]1	27.3
O=C(Cn1cnc2scc(-c3cccs3)c2c1=O)NN=Cc1ccc(Cl)cc1	27.1
NC1=CC(N)N(NC(=O)Cn2cnc3scc(-c4cccs4)c3c2=O)C=C1 (centres unmarked)	25.7
O=C(Cn1cnc2scc(-c3cccs3)c2c1=O)NNC(=S)Nc1ccccc1	24.8

Tell me its Average Weight of Animals in Grams after Days 10 given CCOC(=O)Cn1cnc2scc(-c3cccs3)c2c1=O as the entry.
27.9

---

# run-description: Average animal weight in MCF-7 mouse xenograft model
# Type: in vivo
# experimental-conditions: nude mice with MCF-7 xenograft, i.p., day 20
The reader will find reported Average Weight of Animals in Grams after Days 20 values listed item by item below.
I only need the number, in Grams, no unit after it.

Field: example entries. Status: answers known.
NNC(=O)Cn1cnc2scc(-c3cccs3)c2c1=O	23.6
O=C(Cn1cnc2scc(-c3cccs3)c2c1=O)NNC(=S)Nc1ccccc1	24.4
O=C(Cn1cnc2scc(-c3cccs3)c2c1=O)NN1C(=O)CSC1c1ccc(Cl)cc1 (centres unmarked)	23.6

Tell me its Average Weight of Animals in Grams after Days 20 given Nc1cc(O)cc(=O)n1NC(=O)Cn1cnc2scc(-c3cccs3)c2c1=O as the entry.
25.7

---

# run-description: Average animal weight in MCF-7 mouse xenograft model
# Format: in vivo
# experimental-conditions: nude mice with MCF-7 xenograft, i.p., day 16
test-readout: Average Weight of Animals in Grams after Days 16 (Grams)
I only need the number, in Grams, no unit after it.

NC1=CC(N)N(NC(=O)Cn2cnc3scc(-c4cccs4)c3c2=O)C=C1 (centres unmarked)	25.6
COc1cccc(C2SCC(=O)N2NC(=O)Cn2cnc3scc(-c4cccs4)c3c2=O)c1OC (centres unmarked)	24.7
CCOC(=O)Cn1cnc2scc(-c3cccs3)c2c1=O	27.7
O=c1oc(Cn2cnc3scc(-c4cccs4)c3c2=O)nc2ccccc12	22.9
Nc1cc(O)cc(=O)n1NC(=O)Cn1cnc2scc(-c3cccs3)c2c1=O	25.8

Tell me its Average Weight of Animals in Grams after Days 16 given O=C(Cn1cnc2scc(-c3cccs3)c2c1=O)NN1C(=O)CSC1c1ccc(Cl)cc1 (centres unmarked) as the entry.
23.6

Tell me its Average Weight of Animals in Grams after Days 16 given NNC(=O)Cn1cnc2scc(-c3cccs3)c2c1=O as the entry.
23.6

Tell me its Average Weight of Animals in Grams after Days 16 given O=C(Cn1cnc2scc(-c3cccs3)c2c1=O)NNC(=S)Nc1ccccc1 as the entry.
24.4

---

The reader will find reported Average Weight of Animals in Grams after Days 14 values listed item by item below.
# run-description: Average animal weight in MCF-7 mouse xenograft model
# Type: in vivo
# experimental-conditions: nude mice with MCF-7 xenograft, i.p., day 14
Put down the number, then write its unit next to it.

Field: example entries. Status: answers known.
O=C(Cn1cnc2scc(-c3cccs3)c2c1=O)NN1C(=O)CSC1c1ccc(Cl)cc1 (stereo not shown)	23.7 Grams
Cc1cc(=O)n(C(=O)Cn2cnc3scc(-c4cccs4)c3c2=O)[nH]1	27.2 Grams
Nc1cc(O)cc(=O)n1NC(=O)Cn1cnc2scc(-c3cccs3)c2c1=O	25.9 Grams

Tell me its Average Weight of Animals in Grams after Days 14 given CCOC(=O)Cn1cnc2scc(-c3cccs3)c2c1=O as the entry.
27.7 Grams
